B1: Chromodomain-helicase-DNA-binding protein 5, residues 338 to 390; numbered along this chain, Q8TDI0 (parent)
chain: YETDHQDYCEVCQQGGEIILCDTCPRAYHLVCLDPELEKAPEGKWSCPHCEKE

Variants of: B1
Test: abundance fitness (aPCA) (normalised: wild type 0, dead -1); higher = more abundant; growth selection in yeast, the domain comes from the species named
Details: Homo sapiens
Classify by measured abundance fitness: satisfied if it is equal to or exceeds -0.04, not satisfied if it is smaller.

Worked set:
[[record]]
mutationname = "C24K"
label = "not satisfied"

[[record]]
mutationname = "I18A"
label = "satisfied"

[[record]]
mutationname = "H29C"
label = "satisfied"

[[record]]
mutationname = "P48C"
label = "satisfied"

[[record]]
mutationname = "D22M"
label = "not satisfied"


For this variant, is measured abundance fitness -0.04 or higher? L30I
not satisfied
